Examples of binders with documented Kd follow.
target-desc: AFP158/HLA-A*02:01 complex
test-details: SPR
Supply the numeric figure in nM, leaving out any unit text.

// query Kd value for entry AS170036 VL1VH1-57M98Q (scFv) scFv: QSALTQPRSVSGSPGQSVTISCAGTSSDVGSENYVSWYQQHPGKAPKLMIYQVNKRASGVPDRFSGSKSGNTASLTISGLQAEDEADYYCASYRSSDQNIVFGGGTKLTVLGGGGSGGGGSGGGGSEVQLVESGGGLVQPGGSLRLSCAASGFTFSSYAMSWVRQAPGKGLEWVSTINSGTGMPYYADSVKGRFTISRDNSKNTLYLQMNSLRAEDTAVYYCAKNFFDGSWFLGPPAMDYWGQGTLVTVSSHHHHHH
46
